ASSAYED TARGET: Mouse ACVR2A (mouse, UniProt P27038 20-135, limits assumed); note: test concentration or dose not given here
Sequence (P27038 20-135 limits assumed): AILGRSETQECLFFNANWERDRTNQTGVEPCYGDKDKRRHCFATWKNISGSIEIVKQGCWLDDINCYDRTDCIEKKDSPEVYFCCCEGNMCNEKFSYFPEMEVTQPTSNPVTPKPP
PROTOCOL NOTES: ELISA
QUANTITY NAME: optical density (OD)

>>> observed_value("369_H12 (antibody, V domains shown, VH/VL only) VH: EVQLLESGGGLVQPGGSLRLSCAASGFTFSSYSMNWVRQAPGKGLEWVAGINYNGGYKSYADSVKGRFTISRDNSKNTLYLQMNSLRAEDTAVYYCARGATWHDTHLDYWGQGTLVTVSS VL: DIQMTQSPSSLSASVGDRVTITCRASQSIVTYVNWYQQKPGKAPKLVIYAATSRASGVPSRFSGSGSGTDFTLTISSLQPEDFATYYCQQSYDSPLTFGGGTKVEIK")
3.42
>>> observed_value("366_D08 (antibody, V domains shown, VH/VL only) VH: EVQLLESGGGLVQPGGSLRLSCAASGFTFSSYGMHWVRQAPGKGLEWVSNINYNGGYKSYADSVKGRFTISRDNSKNTLYLQMNSLRAEDTAVYYCARGATWHDTHLDYWGQGTLVTVSS VL: DIQMTQSPSSLSASVGDRVTITCRASQSILSYVNWYQQKPGKAPKLVIYAATSLASGVPSRFSGSGSGTDFTLTISSLQPEDFATYYCQQSYENPLTFGGGTKVEIK")
2.46
>>> observed_value("369_D08 (antibody, V domains shown, VH/VL only) VH: EVQLLESGGGLVQPGGSLRLSCAASGFTFSDYSMNWVRQAPGKGLEWVASINYNGGYKGYADSVKGRFTISRDNSKNTLYLQMNSLRAEDTAVYYCARGATWHDTHLDYWGQGTLVTVSS VL: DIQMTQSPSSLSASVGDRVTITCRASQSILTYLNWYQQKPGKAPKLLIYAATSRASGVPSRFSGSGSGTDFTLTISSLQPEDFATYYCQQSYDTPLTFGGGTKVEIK")
3.13
